# credit: ChEMBL document CHEMBL1208769

Test: Octanol-water partition coefficient of the compound
Type: physicochemical
So I've got a bunch of compounds here, and I need their logP values.
Keep the answer to the number alone.

// lookup logP for N#Cc1c(-c2cccs2)[n+]([O-])c2cc(F)c(F)cc2[n+]1[O-]
2.15

Continue with Cc1ccc(-c2c(C#N)[n+]([O-])c3cc(C)ccc3[n+]2[O-])cc1
2.33

Continue with Cc1ccc(-c2c(C#N)[n+]([O-])c3ccccc3[n+]2[O-])cc1
2.09

Continue with N#Cc1c(-c2cccs2)[n+]([O-])c2ccc(Cl)cc2[n+]1[O-]
1.89

Continue with Cc1ccc(-c2c(C#N)[n+]([O-])c3cc(Cl)c(Cl)cc3[n+]2[O-])cc1
3.1

Continue with N#Cc1c(-c2ccc(Cl)cc2)[n+]([O-])c2cc(F)c(F)cc2[n+]1[O-]
2.87

Continue with COc1ccc2c(c1)[n+]([O-])c(C#N)c(-c1ccc(OC(F)(F)F)cc1)[n+]2[O-]
1.69

Continue with COc1ccc2c(c1)[n+]([O-])c(C#N)c(-c1cccs1)[n+]2[O-]
1.11

Continue with N#Cc1c(-c2ccco2)[n+]([O-])c2ccc(Cl)cc2[n+]1[O-]
1.11

Continue with Cc1cc2c(cc1C)[n+]([O-])c(-c1ccc(OC(F)(F)F)cc1)c(C#N)[n+]2[O-]
2.41

Continue with Cc1ccc(-c2c(C#N)[n+]([O-])c3cc(C(F)(F)F)ccc3[n+]2[O-])cc1
2.95

Continue with N#Cc1c(-c2ccc(Cl)cc2)[n+]([O-])c2ccccc2[n+]1[O-]
2.35

Continue with Cc1ccc2c(c1)[n+]([O-])c(C#N)c(-c1ccco1)[n+]2[O-]
0.845

Continue with N#Cc1c(-c2ccc(OC(F)(F)F)cc2)[n+]([O-])c2cc(Cl)c(Cl)cc2[n+]1[O-]
2.68

Continue with N#Cc1c(-c2ccccc2)[n+]([O-])c2ccc(C(F)(F)F)cc2[n+]1[O-]
2.72

Continue with COc1ccc(-c2c(C#N)[n+]([O-])c3cc(Cl)ccc3[n+]2[O-])cc1
2.09

Continue with N#Cc1c(-c2ccco2)[n+]([O-])c2cc(Cl)c(Cl)cc2[n+]1[O-]
1.64

Continue with Cc1ccc2c(c1)[n+]([O-])c(C#N)c(-c1cccs1)[n+]2[O-]
1.62

Continue with N#Cc1c(NC(=O)c2cccs2)[n+]([O-])c2cc(F)c(F)cc2[n+]1[O-]
1.62

Continue with COc1ccc2c(c1)[n+]([O-])c(C#N)c(-c1ccc(Cl)cc1)[n+]2[O-]
2.09
